The origin of these recorded values is ChEMBL document CHEMBL4373746.

test: Total plasma concentration in Wistar Han rat at 1 to 2 mg/kg, iv infused for 10 to 20 hrs by LC-MS/MS analysis; details: in vivo
EXPERIMENTAL_READOUT: Cp (ng/mL)

Some solved cases for reference:
MOLECULE	OUTPUT_UNIT	Cp
CC(C)C[C@H](Nc1ccc(C(=O)NCCC(=O)O)cn1)c1ccc(-c2ccc(C(F)(F)F)cn2)cc1	ng/mL	45
C[C@H]1COCCN1c1nc(-c2cnc(N)nc2)c2c(n1)N([C@@]1(C)CCN(C(=O)C(C)(C)N)C1)CC2	ng/mL	4.5

1. COc1ccc(-c2cc3c(S(=O)(=O)O)c[nH]c3cc2Cl)cc1
2. CN1CC[C@H](c2c(O)cc(O)c3c(=O)cc(-c4ccccc4Cl)oc23)[C@H](O)C1 [ALVOCIDIB]
Q. For 1 and 2 , which recorded Cp is lower? Respond with the label that goes with your answer.
A. 2
(2: 14 ng/mL, 1: 330 ng/mL)
